For each record, write down the corresponding pIC50.
- system.tested: C-terminal GST-tagged, recombinant, human IGF-1R, amino acids 954-1367 (Homo sapiens, UniProt P08069)
- Construct: human IGF-1R, amino acids 954-1367 expressed by baculovirus in Sf21 cells; GST (C)
- Sequence (P08069 954-1367): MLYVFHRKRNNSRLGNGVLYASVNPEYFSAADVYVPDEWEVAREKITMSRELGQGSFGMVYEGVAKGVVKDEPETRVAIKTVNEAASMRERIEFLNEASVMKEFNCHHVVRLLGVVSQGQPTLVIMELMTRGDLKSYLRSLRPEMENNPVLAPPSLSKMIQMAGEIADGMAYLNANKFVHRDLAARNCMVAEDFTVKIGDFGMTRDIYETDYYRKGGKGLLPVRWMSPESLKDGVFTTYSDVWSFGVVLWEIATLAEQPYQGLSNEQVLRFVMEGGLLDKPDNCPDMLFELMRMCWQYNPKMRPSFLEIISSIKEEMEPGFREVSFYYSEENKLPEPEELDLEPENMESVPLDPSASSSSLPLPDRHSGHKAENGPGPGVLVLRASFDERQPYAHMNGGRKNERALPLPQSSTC
- assay: IGF-1R homogenous time-resolved fluorescence (HTRF) in vitro kinase assay
- conditions: IGF-1R kinase, ATP 50 μM final, biotinylated peptide substrate 0.5 μM, 60 minutes at room temperature
pIC50: −log10 of the molar value.

INSERT INTO results (given_smiles, observation_type, measured_result) VALUES
  ('COc1cc(N2CCOCC2)ccc1Nc1nccc(-c2c(-c3ccc4nc(Cc5c(F)cccc5F)[nH]c4c3)nc3ccccn23)n1', 'pIC50', '7.30 to 8.00'),
  ('OCCn1cc(Nc2nccc(-c3c(-c4ccc5[nH]c(-c6ccccc6)nc5c4)nc4ccccn34)n2)cn1', 'pIC50', '7.30 to 8.00'),
  ('COc1cc(N2CCC(N(C)C)CC2)ccc1Nc1nccc(-c2c(-c3ccc4nc(Cc5ccccc5)[nH]c4c3)nc3sccn23)n1', 'pIC50', '> 8.00'),
  ('CN(C)Cc1ccccc1Nc1nccc(-c2c(-c3ccc4nc(Cc5ccccc5)[nH]c4c3)nc3sccn23)n1', 'pIC50', '< 6.30'),
  ('COc1cc(N2CCC(N3CCN(C)CC3)CC2)ccc1Nc1nccc(-c2c(-c3ccc4[nH]c(Cc5ccccc5)nc4c3)nc3ccccn23)n1', 'pIC50', '> 8.00');

Give pIC50 for all compounds that follow.
1. CCn1cc(-c2ccnc(Nc3ccccc3OC)n2)c(-c2ccc3[nH]c(Cc4ccccc4)nc3c2)n1
2. COc1cc(NCC(C)(C)O)ccc1Nc1nccc(-c2c(-c3ccc4[nH]c(Cc5ccccc5)nc4c3)nc3ccccn23)n1

["6.30 to 7.00", "7.30 to 8.00"]
